These measurements were taken from ChEMBL document CHEMBL5143699.

target: Cytochrome P450 2D6 (Homo sapiens, UniProt P10635)
Sequence (P10635 whole entry): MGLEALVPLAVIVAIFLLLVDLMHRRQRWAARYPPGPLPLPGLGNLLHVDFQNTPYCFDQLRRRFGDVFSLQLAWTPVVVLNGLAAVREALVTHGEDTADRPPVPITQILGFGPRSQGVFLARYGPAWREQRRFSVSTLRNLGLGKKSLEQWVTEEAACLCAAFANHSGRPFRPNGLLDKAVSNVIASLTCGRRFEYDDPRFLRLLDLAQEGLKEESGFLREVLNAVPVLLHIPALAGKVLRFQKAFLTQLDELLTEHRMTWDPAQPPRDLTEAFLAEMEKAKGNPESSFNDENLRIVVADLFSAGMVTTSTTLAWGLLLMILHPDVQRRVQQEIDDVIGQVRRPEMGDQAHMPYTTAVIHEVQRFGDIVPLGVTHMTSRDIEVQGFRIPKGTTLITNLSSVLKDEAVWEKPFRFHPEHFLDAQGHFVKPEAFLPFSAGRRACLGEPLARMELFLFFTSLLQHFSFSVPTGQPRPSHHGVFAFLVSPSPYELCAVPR
metric name: IC50

molecule_smiles=CS(C)(=O)=Nc1ccc(-c2ccc(-c3nc4cc(O[C@@H]5CO[C@H]6[C@@H]5OC[C@H]6O)[nH]c4cc3F)cc2)nc1 system_under_test="Cytochrome P450 2D6 (Homo sapiens, UniProt P10635)" data_value="> 10 µM"

====

Documented remaining at 0.5 h across a set of compounds
experiment: Metabolic stability in rat liver microsomes assessed as compound remaining measured after 30 mins; assay type: ADME, Microsome; conditions: read-out: Stability
metric name: remaining at 0.5 h

molecule_smiles=CS(C)(=O)=Nc1ccc(-c2ccc(-c3nc4cc(O[C@@H]5CO[C@H](CO)C5)[nH]c4cc3F)cc2)cc1 data_value=90%
molecule_smiles=CS(C)(=O)=Nc1ccc(-c2ccc(-c3nc4cc(O[C@@H]5CO[C@H]6[C@@H]5OC[C@H]6O)[nH]c4cc3F)cc2)nc1 data_value=83%
molecule_smiles=O=S1(=Nc2ccc(-c3ccc(-c4nc5cc(O[C@@H]6CO[C@H]7[C@@H]6OC[C@H]7O)[nH]c5cc4F)cc3)cc2)CCCC1 data_value=86%
molecule_smiles=CS(C)(=O)=Nc1ccc(-c2ccc(-c3nc4cc(O[C@@H]5CO[C@H]6[C@@H]5OC[C@H]6O)[nH]c4cc3F)cc2)cc1 data_value=91%

====

Here we list compounds with their recorded IC50 when tested on Cytochrome P450 2C19 (Homo sapiens).
Sequence (P33261 whole entry): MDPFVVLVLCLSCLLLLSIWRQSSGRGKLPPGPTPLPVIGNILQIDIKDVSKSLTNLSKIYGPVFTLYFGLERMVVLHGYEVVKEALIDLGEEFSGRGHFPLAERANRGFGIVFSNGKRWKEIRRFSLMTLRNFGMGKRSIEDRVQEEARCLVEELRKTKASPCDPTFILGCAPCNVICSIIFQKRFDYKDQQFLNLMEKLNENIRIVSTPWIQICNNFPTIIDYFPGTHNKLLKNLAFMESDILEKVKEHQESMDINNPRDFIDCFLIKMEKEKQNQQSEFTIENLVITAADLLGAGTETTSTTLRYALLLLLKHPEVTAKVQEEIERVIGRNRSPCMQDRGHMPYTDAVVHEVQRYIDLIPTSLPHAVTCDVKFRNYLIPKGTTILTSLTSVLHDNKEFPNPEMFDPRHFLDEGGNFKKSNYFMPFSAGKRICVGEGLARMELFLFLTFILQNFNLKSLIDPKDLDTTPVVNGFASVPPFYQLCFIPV
metric name: IC50 (µM)

molecule_smiles=O=C(c1ccc(-c2ccc(-c3nc4cc(O[C@@H]5CO[C@H]6[C@@H]5OC[C@H]6O)[nH]c4cc3F)cc2)cc1)N1CCCC1 prefix_operator== data_value=7.4
molecule_smiles=CS(C)(=O)=Nc1ccc(-c2ccc(-c3nc4cc(O[C@@H]5CO[C@H]6[C@@H]5OC[C@H]6O)[nH]c4cc3F)cc2)cc1 prefix_operator=> data_value=10

====

target: AMPK alpha2/beta2/gamma1 (Homo sapiens) (UniProt P54646+O43741+P54619); assay: Activation of human recombinant AMPK A2/B2/G1 assessed as increase in AMPK phosphorylation using FL-peptide as substrate incubated for 120 mins by EZ reader method; format: protein-complex assay; details: filed as activator
Sequence (O43741 whole entry, looked up): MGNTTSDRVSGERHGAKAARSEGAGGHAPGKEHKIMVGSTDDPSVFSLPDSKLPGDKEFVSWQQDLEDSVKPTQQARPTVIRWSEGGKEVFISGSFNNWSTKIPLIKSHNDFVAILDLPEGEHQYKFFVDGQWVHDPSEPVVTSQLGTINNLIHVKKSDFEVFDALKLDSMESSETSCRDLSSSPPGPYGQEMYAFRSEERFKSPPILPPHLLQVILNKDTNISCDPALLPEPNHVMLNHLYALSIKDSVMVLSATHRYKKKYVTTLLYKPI
Sequence (P54619 whole entry, looked up): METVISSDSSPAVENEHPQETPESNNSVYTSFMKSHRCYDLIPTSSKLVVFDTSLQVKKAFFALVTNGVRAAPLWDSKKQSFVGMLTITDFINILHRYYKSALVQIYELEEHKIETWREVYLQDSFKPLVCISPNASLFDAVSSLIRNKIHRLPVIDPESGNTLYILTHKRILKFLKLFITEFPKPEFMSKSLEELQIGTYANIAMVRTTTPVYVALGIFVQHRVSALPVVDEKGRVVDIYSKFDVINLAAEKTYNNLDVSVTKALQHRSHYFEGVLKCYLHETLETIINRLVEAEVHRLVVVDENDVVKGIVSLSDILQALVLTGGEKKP
Sequence (P54646 whole entry, looked up): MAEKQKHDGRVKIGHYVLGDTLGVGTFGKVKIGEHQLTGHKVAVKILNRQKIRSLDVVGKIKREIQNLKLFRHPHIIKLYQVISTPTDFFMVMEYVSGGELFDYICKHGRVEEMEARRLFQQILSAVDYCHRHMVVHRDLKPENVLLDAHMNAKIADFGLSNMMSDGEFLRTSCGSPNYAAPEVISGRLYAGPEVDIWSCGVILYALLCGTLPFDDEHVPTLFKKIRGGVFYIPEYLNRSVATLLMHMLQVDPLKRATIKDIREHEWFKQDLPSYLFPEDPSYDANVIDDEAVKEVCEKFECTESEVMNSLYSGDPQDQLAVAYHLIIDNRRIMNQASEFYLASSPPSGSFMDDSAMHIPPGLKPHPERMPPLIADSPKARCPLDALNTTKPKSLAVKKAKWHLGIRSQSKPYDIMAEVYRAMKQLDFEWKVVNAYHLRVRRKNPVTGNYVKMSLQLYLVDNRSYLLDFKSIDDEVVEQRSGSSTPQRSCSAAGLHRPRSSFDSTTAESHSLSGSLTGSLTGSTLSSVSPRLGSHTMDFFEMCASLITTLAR
metric name: log10 EC150 (log10 of the value in µM)

molecule_smiles=COCCOc1ccc(-c2ccc(-c3nc4cc(O[C@@H]5CO[C@H]6[C@@H]5OC[C@H]6O)[nH]c4cc3F)cc2)cn1 data_value=-1.80
molecule_smiles=O[C@@H]1CO[C@H]2[C@@H]1OC[C@H]2Oc1cc2nc(-c3ccc(N4CCOCC4)cc3)c(Cl)cc2[nH]1 data_value=-2.72
molecule_smiles=O=C(c1ccc(-c2ccc(-c3nc4cc(O[C@@H]5CO[C@H]6[C@@H]5OC[C@H]6O)[nH]c4cc3F)cc2)cc1)N1CCCC1 data_value=-2.74
molecule_smiles=O[C@@H]1CO[C@H]2[C@@H]1OC[C@H]2Oc1cc2nc(-c3ccc(N4CCOCC4)cc3)c(F)cc2[nH]1 data_value=-2.28
molecule_smiles=N#Cc1c(O[C@@H]2CO[C@H]3[C@@H]2OC[C@H]3O)[nH]c2cc(Cl)c(-c3ccc(N4CCOCC4)cc3)nc12 data_value=-1.06
molecule_smiles=COc1ccc(-c2ccc(-c3nc4cc(O[C@@H]5CO[C@H]6[C@@H]5OC[C@H]6O)[nH]c4cc3F)cc2)cc1 data_value=-1.96
molecule_smiles=O[C@@H]1CO[C@H]2[C@@H]1OC[C@H]2Oc1cc2nc(-c3ccc(-c4ccccc4)cc3)c(F)cc2[nH]1 data_value=-1.77
molecule_smiles=N#Cc1c(O[C@@H]2CO[C@H]3[C@@H]2OC[C@H]3O)[nH]c2cc(Cl)c(-c3ccc(N4CCOCC4)cc3)cc12 data_value=-1.41
molecule_smiles=O=S1(=Nc2ccc(-c3ccc(-c4nc5cc(O[C@@H]6CO[C@H]7[C@@H]6OC[C@H]7O)[nH]c5cc4F)cc3)cc2)CCCC1 data_value=-2.70
molecule_smiles=CS(C)(=O)=Nc1ccc(-c2ccc(-c3nc4cc(O[C@@H]5CO[C@H](CO)C5)[nH]c4cc3F)cc2)cc1 data_value=-3.00
molecule_smiles=N#Cc1c(O[C@@H]2CO[C@H]3[C@@H]2OC[C@H]3O)[nH]c2ccc(-c3ccc(N4CCOCC4)cc3)cc12 data_value=-0.42
molecule_smiles=CS(C)(=O)=Nc1ccc(-c2ccc(-c3nc4cc(O[C@@H]5CO[C@H]6[C@@H]5OC[C@H]6O)[nH]c4cc3F)cc2)nc1 data_value=-2.47
molecule_smiles=COCCOc1ccc(-c2ccc(-c3nc4cc(O[C@@H]5CO[C@H]6[C@@H]5OC[C@H]6O)[nH]c4cc3F)cc2)cc1 data_value=-2.14
molecule_smiles=CS(C)(=O)=Nc1ccc(-c2ccc(-c3nc4cc(O[C@@H]5CO[C@H]6[C@@H]5OC[C@H]6O)[nH]c4cc3F)cc2)cc1 data_value=-3.00
